Numbers sourced from the supplement of paper PMC7125110.

B1: glmS ribozyme (parent)
chain: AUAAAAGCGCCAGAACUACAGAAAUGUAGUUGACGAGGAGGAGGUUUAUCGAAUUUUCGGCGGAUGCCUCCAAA

# Variants of: B1
# method: self-cleavage kobs at 640 uM GlcN6P; higher = faster cleavage; RNA array
# condition: with glucosamine-6-phosphate
This sample holds only a part of the variants without activity.
fulfilled means recorded self-cleavage kobs at 640 uM GlcN6P is 0.0001 s⁻¹ or above; not fulfilled means it is below 0.0001 s⁻¹.

Ask | Check if self-cleavage kobs at 640 uM GlcN6P >= 0.0001 s⁻¹ (inclusive). Item: G9A C16G G63A A64G
Reply | not fulfilled

Ask | Assess whether reported self-cleavage kobs at 640 uM GlcN6P for A52U U56G sits at 0.0001 s⁻¹ or higher.
Reply | not fulfilled

Ask | Reported self-cleavage kobs at 640 uM GlcN6P reaches at least 0.0001 s⁻¹ for G51A G62C ?
Reply | not fulfilled

Ask | Please indicate if the recorded self-cleavage kobs at 640 uM GlcN6P for G60U G63U C70A meets or exceeds 0.0001 s⁻¹.
Reply | not fulfilled

Ask | Quick check, self-cleavage kobs at 640 uM GlcN6P >= 0.0001 s⁻¹? G32A G41U
Reply | not fulfilled

Ask | Item G9A C71G with self-cleavage kobs at 640 uM GlcN6P of 0.0001 s⁻¹ or above?
Reply | not fulfilled

Ask | Test whether the variant G32A U56A records self-cleavage kobs at 640 uM GlcN6P of 0.0001 s⁻¹ or higher.
Reply | not fulfilled

Ask | self-cleavage kobs at 640 uM GlcN6P >= 0.0001 s⁻¹ for A14G U45A U49G ?
Reply | fulfilled
